Values from a melting point compilation (Tetko et al.; mined from patent text by program, amines drawn as free bases though some values may be those of a salt)

PARAMETER MEASURED: melting point

CC(C(N)=S)(c1ccccc1)c1ccccn1 (stereo unspecified) : 186 to 188 °C
C=CCOC(=O)C(C#N)=C(SC)SC : 36 to 37.5 °C
O=c1ccn2c(n1)COc1ccc(Cl)cc1-2 : 222 to 224 °C

Answer for every listed entry: what is its melting point? The entries follow.
1. Cc1nc2c(s1)CN=C(c1ccccc1)c1cc(Cl)ccc1-2
2. COc1cccc(CNC(=O)c2[nH]c3ccc(Cl)cc3c2S(=O)(=O)c2nccs2)c1
3. c1ccc(C(N=C2NCCN2)c2ccccc2)cc1
4. O=c1[nH]c2ncc(Cl)cc2o1
5. CCCOc1ccccc1-c1ncc(C(=O)O)c(=O)[nH]1
6. CN(c1ccc([N+](=O)[O-])cc1[N+](=O)[O-])S(=O)(=O)c1ccccc1
7. COc1c(N(C)C)cc(CC(C#N)=CNc2ccccc2)cc1N(C)C

128 to 130 °C
205 to 209 °C
189 to 190 °C
184 to 186 °C
203 to 206 °C
152 to 153 °C
103 to 105 °C

What does the data say about its melting point? Entry: `O=C(O)c1ccc(-c2nc(-c3ccc(Cl)cc3)no2)c([N+](=O)[O-])c1`
257 to 258 °C

----------
Please provide measured melting point for the entries that follow.

Observe how each entry below is paired with its result.
CN(C)c1ccc(C2CC3(C)C(O)CCC3C3CCC4=CC(=O)CCC4=C23)cc1 (stereo unspecified) : 166 to 167 °C
CONC(=O)Nc1cc(C(C)(C)C)on1 : 145 to 148 °C
Cc1cccc(Nc2ncnc3cnc(NC4CCN(C(=O)N(C)C)CC4)nc23)c1 : 185 to 187 °C
CCn1cncc1/C=C/c1cn(-c2ccccc2)nc1OCc1ccc(OCc2nc(-c3ccco3)oc2C)c(OC)c1 : 130 to 132 °C
CCCCOC(=O)c1ccc(Cl)nn1 : 110 to 111 °C

Here is the next item to consider.
What does the data say about its melting point? Entry: CCOC(=O)CC1CCc2ccc(COc3ccc(C#N)cc3)cc2C1 (stereo unspecified)
51 to 52 °C

----------
PARAMETER MEASURED: melting point

Observe how each entry below is paired with its result.
O=C(O)c1cccc(Oc2ccc(Br)cc2)c1 : 171 to 173 °C
O=[N+]([O-])c1cc(-c2ncnc(C(F)F)c2Cl)c(Cl)cc1Cl : 107 to 109 °C
C=CCc1c(O)cccc1C1=NNC(=O)CC1 : 197 to 200 °C

Answer for every listed entry: what is its melting point? The entries follow.
1. NNC(=O)c1cnn(-c2ccc(NN)nn2)c1N
2. CCCC1=C(C#N)C(c2ccccc2Cl)c2c(n[nH]c2-c2ccc(OC)cc2)N1 (stereo unspecified)

["302 to 305 °C", "284 °C"]

----------
PARAMETER MEASURED: melting point

C=C(C(=O)c1cc(C)cc(C)c1O)c1ccccc1 : 83 to 84 °C
O=Cc1ccccc1OCC(=O)NCCO[N+](=O)[O-] : 99 to 101 °C

Answer for every listed entry: what is its melting point? The entries follow.
1. CSC(Oc1cc(Cl)cc(Cl)c1)C(=O)NC(C)(C)C#CCCCC#N (stereo not given)
2. CCOCc1nc2c(N)nc3ccccc3c2n1CC(C)(C)O
3. O=c1ccc2ccc(OCCCN3CCC(C(O)(c4ccc(F)cc4)c4ccc(F)cc4)CC3)cc2o1

1. 113 to 114 °C
2. 190 to 193 °C
3. 99 to 120 °C

Answer for every listed entry: what is its melting point? The entries follow.
1. O=C(CCl)Nc1cc(C(=O)O)cc(OCc2ccccc2)c1C(=O)c1ccccc1
2. CC(=O)OCCn1c(=O)c(C#N)c(N2CCN(C(=O)c3cccs3)CC2)c2cccnc21
3. Cc1cc(NC(=O)C(C)(O)COc2cccc(F)c2)ccc1[N+](=O)[O-] (stereo not given)
4. CC(C)N(CCN1C(=O)C(=O)c2cc(Cl)ccc21)C(C)C

1. 214 to 216 °C
2. 189 °C
3. 83 to 86 °C
4. 99 to 101 °C

What does the data say about its melting point? Entry: `COCCOc1cccc(-c2ccc(C3CCN(S(=O)(=O)C(C)(C)C(=O)NO)CC3)cc2C)n1`
134 to 138 °C

----------
Please provide measured melting point for the entries that follow.

O=C(O)CCN1CCN2c3ccccc3Sc3ccccc3C2C1 (stereo not given) : 218 to 220 °C
O=C(OC1CCCC1)c1ccc([N+](=O)[O-])c(OC2CCCC2)c1 : 45.5 to 46.5 °C
O=C(O)Cc1ccc(OCc2ccccc2)cc1OCc1ccccc1 : 139 °C
NS(=O)(=O)c1cc(C(=O)O)cc(NC/C=C/CBr)c1Oc1ccccc1 : 191 to 194 °C
CC1(CCc2ccc(O)c(C(C)(C)C)c2)NC(=O)NC1=O (stereo not given) : 246 °C

Answer for every listed entry: what is its melting point? The entries follow.
1. CCc1nc2c(Cl)ncnc2n1C(C1CC1)C1CC1
2. CCCCCCCCCCCCC1(CCCCCCCCCCCC)c2cc(Br)ccc2-c2ccc(Br)cc21
3. Oc1cccc2nc(Cc3ccccc3)[nH]c12
4. O=c1[nH]c2ccccc2c(=O)n1Cc1ccc(Cl)c(Cl)c1
5. CCCC1CCC(c2ccc(-c3cc(F)c(F)c(F)c3C=O)cc2)CC1 (stereo not given)

["99 to 100 °C", "49 to 50 °C", "172 to 174 °C", "274 to 275 °C", "62 °C"]

----------
PARAMETER MEASURED: melting point

Observe how each entry below is paired with its result.
CC(Br)C(=O)c1cc2c(Cl)cccc2s1 (stereo not given) : 104 to 106 °C
Cc1cc(Oc2ccc(Cc3ccccc3)cc2)cc(C)c1N : 61 to 63 °C
CC(C)c1nc(C(O)(C(F)(F)F)C(F)(F)F)[nH]c1-c1ccc([N+](=O)[O-])cc1 : 157 to 160 °C
CC(C)(C)OC(=O)Nc1ccc(C2=CCN(C(=O)OC(C)(C)C)CC2)cc1[N+](=O)[O-] : 85 to 87 °C
CC(C)(C)NC1=NS(=O)(=O)c2sc(Cl)cc2N1 : 368 to 372 °C

Answer for every listed entry: what is its melting point? The entries follow.
1. C(=C\c1nc(COc2ccc(CCCn3ncnn3)cc2)co1)/c1ccccc1
2. CCCCCCOc1cc(N(CC)CC)ccc1C1(c2c(C)n(CC)c3ccccc23)OC(=O)c2cccnc21 (stereo not given)
3. COc1ccc(CN(C)C)cc1CO
4. SCC1CSC2(SCCS2)S1 (stereo not given)

1. 97 to 98 °C
2. 154 to 156 °C
3. 67 to 69 °C
4. 79 to 80.5 °C

What does the data say about its melting point? Entry: `C=C(C)COc1ccc(NC(C)=O)c(C)c1C`
154 to 156 °C

----------
PARAMETER MEASURED: melting point

Observe how each entry below is paired with its result.
Cn1c(-c2ccc(OC3CCN(C4CCC4)CC3)cc2)nc2ccccc2c1=O : 168 to 171 °C
O=C1N(c2ccc(Cl)cc2Cl)Cc2cnc(Nc3ccccc3)nc2N1c1cccc(CCN2CCNCC2)c1 : 126 °C
CS(=O)(=O)c1cc(S(N)(=O)=O)sc1CO : 175 to 178 °C
CC(=O)C=Cc1ccc2c(c1)OCO2 : 108 to 109 °C
C[C@H]1CCCN(CCCOc2ccc(-c3nc4cccnc4c(=O)n3C)cc2)C1 : 83.5 to 88.5 °C

Answer for every listed entry: what is its melting point? The entries follow.
1. COc1cc(-c2nc(C)c(C(C)=NNC(N)=O)s2)cc(OC)c1OC
2. COc1cc(OC)c(CN2CCc3cc(OCc4ccccc4)c(OC)cc3C2)c(OC)c1
3. COc1ccc(C(=O)Nc2ccc(F)cc2)cc1NC(=S)Nc1cccc(C(=O)O)c1
4. COC(=O)CC[C@H](NC(=O)c1ccc(NCCc2c(N(C(C)=O)C(C)=O)nc(NC(C)=O)[nH]c2=O)cc1)C(=O)OC
5. NCCCNc1nc2c(NCc3ccccc3)ncnc2n1C1OC(CO)C(O)C1O (stereo not given)
6. COC(=O)C(C)Oc1ccc([N+](=O)[O-])cc1 (stereo not given)
7. C#CCN(c1ccc(C(=O)O)cc1)C1CCc2cc3nc(COC(=O)C(C)(C)C)[nH]c(=O)c3cc21 (racemic)
8. O=C1C2CCC(N1c1cccs1)n1c(=O)n(-c3ccccc3)c(=O)n12 (stereo not given)

1. 240 to 242 °C
2. 129 to 131 °C
3. 218 to 220 °C
4. 168 to 178 °C
5. 72 to 76 °C
6. 79 to 80 °C
7. 133 °C
8. 238 to 244 °C

Answer for every listed entry: what is its melting point? The entries follow.
1. CCN(C(=O)CN1C(=O)c2ccccc2C1=O)c1ccc(C)c(CO)c1C
2. O=C(O)Cc1c(C(=O)c2cccc(F)c2)[nH]c2cc(Cl)ccc12
3. N#CC(Oc1nsnc(Cl)c1=O)c1cccc(Oc2ccccc2)c1 (stereo not given)
4. O=C(C=Cc1cncnc1)CCCCc1ccc2c(n1)NCCC2

1: 205 to 207 °C; 2: 278 to 281 °C; 3: 146 to 148 °C; 4: 101 to 102 °C

Answer for every listed entry: what is its melting point? The entries follow.
1. COCCc1nc2c(N)nc3cc(-c4ccccc4)ccc3c2n1CCCN1CCCC1=O
2. CCCOc1cc(-c2ccc3cc4c(cc3c2)C(C)(C)CCC4(C)C)ccc1C(=O)O
3. O=C1CSc2ccc3ccccc3c2N1

187 to 191 °C
137 to 138 °C
195 to 196 °C
